B1: glmS ribozyme (parent)
chain: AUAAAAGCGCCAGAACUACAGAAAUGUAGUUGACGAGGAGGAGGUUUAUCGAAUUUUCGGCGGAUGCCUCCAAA

Variants of: B1
Test: self-cleavage kobs at 2500 uM GlcN6P; higher = faster cleavage; RNA array
Settings: with glucosamine-6-phosphate
This sample holds only a part of the variants without activity.
Result type: self-cleavage kobs at 2500 uM GlcN6P (s⁻¹)
Supply the numeric figure in s⁻¹, leaving out any unit text.

// known answers, use as guide
Enquiry: // query self-cleavage kobs at 2500 uM GlcN6P value for entry C50A C70U
Return: 3.95e-05

Enquiry: Same read-out for A53G G60A ?
Return: 3.68e-05

Enquiry: Next record, please: U30A G32C
Return: 6.18e-05

Enquiry: Now consider A39U U55C U65G .
Return: 0.00164

Enquiry: Record: U31C A36C G63U C68A
Return: 0.000118

---
Enquiry: // lookup self-cleavage kobs at 2500 uM GlcN6P for A6U A14U
Return: 4.51e-05

Enquiry: How about U45A U46A A52U ?
Return: 8.04e-05

Enquiry: Follow-up item: U31G U55G U56C
Return: 0.000395

Enquiry: Same read-out for U54G U56A U69G ?
Return: 4.21e-05

Enquiry: A6U U69G ?
Return: 4.72e-05
